- ASSAYED_TARGET: panel of 203 kinases (Homo sapiens, UniProt P04626)
- Construct: purchased DiscoverX (KINOMEscan)
- Sequence (P04626 23-1255): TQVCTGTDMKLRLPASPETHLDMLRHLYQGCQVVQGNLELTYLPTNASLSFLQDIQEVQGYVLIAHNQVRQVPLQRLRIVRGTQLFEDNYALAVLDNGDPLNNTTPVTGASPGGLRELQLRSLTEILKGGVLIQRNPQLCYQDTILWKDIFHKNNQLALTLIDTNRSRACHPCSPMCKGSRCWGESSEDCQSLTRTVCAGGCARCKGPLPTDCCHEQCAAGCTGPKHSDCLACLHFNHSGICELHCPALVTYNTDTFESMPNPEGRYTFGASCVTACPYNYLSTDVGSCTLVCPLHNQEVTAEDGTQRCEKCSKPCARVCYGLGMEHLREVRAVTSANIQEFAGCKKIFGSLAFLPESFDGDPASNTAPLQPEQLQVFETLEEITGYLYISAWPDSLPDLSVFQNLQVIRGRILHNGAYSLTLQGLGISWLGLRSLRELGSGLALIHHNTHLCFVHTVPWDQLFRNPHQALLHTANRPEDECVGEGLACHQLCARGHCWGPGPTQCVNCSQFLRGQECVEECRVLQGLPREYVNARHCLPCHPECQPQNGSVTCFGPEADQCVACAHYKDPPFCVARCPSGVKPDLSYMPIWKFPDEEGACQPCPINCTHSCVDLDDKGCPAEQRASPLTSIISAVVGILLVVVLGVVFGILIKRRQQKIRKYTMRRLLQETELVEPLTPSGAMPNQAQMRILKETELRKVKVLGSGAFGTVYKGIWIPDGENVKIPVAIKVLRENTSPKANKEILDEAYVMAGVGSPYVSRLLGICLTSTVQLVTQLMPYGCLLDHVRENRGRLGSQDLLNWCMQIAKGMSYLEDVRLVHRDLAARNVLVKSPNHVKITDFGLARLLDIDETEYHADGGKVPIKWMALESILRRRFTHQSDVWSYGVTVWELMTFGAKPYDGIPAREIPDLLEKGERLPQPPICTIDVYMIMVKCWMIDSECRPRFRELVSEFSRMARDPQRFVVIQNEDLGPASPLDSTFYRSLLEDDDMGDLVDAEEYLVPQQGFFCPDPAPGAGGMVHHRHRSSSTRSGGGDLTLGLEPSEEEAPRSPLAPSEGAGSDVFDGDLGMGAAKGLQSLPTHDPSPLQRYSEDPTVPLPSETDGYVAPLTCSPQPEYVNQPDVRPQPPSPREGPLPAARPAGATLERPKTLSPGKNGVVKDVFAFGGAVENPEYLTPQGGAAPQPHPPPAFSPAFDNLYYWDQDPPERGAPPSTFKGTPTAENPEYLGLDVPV
- TEST_METHOD_NOTES: KINOMEscan competitive binding, whole panel
- DETAILS: 10 µM, n=1; kinase ERBB2; read-out: Percent inhibition ERBB2
READOUT: inhibition at 10 µM (%)

compound_smiles=CN1CCN(c2ccc(Nc3nccc(-c4cnn5ncccc45)n3)cc2C#N)CC1 assayed_target="panel of 203 kinases (Homo sapiens, UniProt P04626)" readout="inhibition at 10 µM" measured_number=0
compound_smiles=Fc1cccc(COc2ccc(Nc3ncnc4c3CN(CCN3CCOCC3)CC4)cc2Cl)c1 assayed_target="panel of 203 kinases (Homo sapiens, UniProt P04626)" readout="inhibition at 10 µM" measured_number=86.5
compound_smiles=Cc1ccc(O)cc1Nc1ccnc(Nc2cccc(C(N)=O)c2)n1 assayed_target="panel of 203 kinases (Homo sapiens, UniProt P04626)" readout="inhibition at 10 µM" measured_number=0
compound_smiles=COc1cc(Nc2nccc(-c3sc(N)nc3-c3cccc(NC(=O)c4c(F)cccc4F)c3)n2)cc(OC)c1OC assayed_target="panel of 203 kinases (Homo sapiens, UniProt P04626)" readout="inhibition at 10 µM" measured_number=100
compound_smiles=Cc1ccc(O)cc1N(C)c1ccnc(Nc2cccc(S(N)(=O)=O)c2)n1 assayed_target="panel of 203 kinases (Homo sapiens, UniProt P04626)" readout="inhibition at 10 µM" measured_number=0
compound_smiles=C[C@@H](Oc1cc(-c2cnc3ccccn23)sc1C(N)=O)c1ccccc1Cl assayed_target="panel of 203 kinases (Homo sapiens, UniProt P04626)" readout="inhibition at 10 µM" measured_number=0
compound_smiles=Clc1ccc(Nc2ncc(-c3ccccc3)s2)cc1 assayed_target="panel of 203 kinases (Homo sapiens, UniProt P04626)" readout="inhibition at 10 µM" measured_number=0
compound_smiles=Nc1ncc2c(-c3ccncc3)c[nH]c2n1 assayed_target="panel of 203 kinases (Homo sapiens, UniProt P04626)" readout="inhibition at 10 µM" measured_number=0
compound_smiles=c1ccc(COc2cccc(-c3ccnc4[nH]ccc34)c2)cc1 assayed_target="panel of 203 kinases (Homo sapiens, UniProt P04626)" readout="inhibition at 10 µM" measured_number=0
compound_smiles=COc1ccc(Nc2nccc(-c3cnn4ncccc34)n2)cc1 assayed_target="panel of 203 kinases (Homo sapiens, UniProt P04626)" readout="inhibition at 10 µM" measured_number=0

###

- ASSAYED_TARGET: panel of 203 kinases (Homo sapiens)
- Construct: purchased DiscoverX (KINOMEscan)
- TEST_METHOD_NOTES: KINOMEscan competitive binding, whole panel
- DETAILS: 10 µM, n=1; kinase CAMK2G; read-out: Percent inhibition CAMK2G
Reported inhibition at 10 µM by item:
READOUT: inhibition at 10 µM (%)

compound_smiles=c1ccc(COc2cccc(-c3ccnc4[nH]ccc34)c2)cc1 readout="inhibition at 10 µM" value_unit=% measured_number=0
compound_smiles=COc1ccc(Nc2nccc(-c3cnn4ncccc34)n2)cc1 readout="inhibition at 10 µM" value_unit=% measured_number=75.2
compound_smiles=Cc1ccc(O)cc1Nc1ccnc(Nc2cccc(C(N)=O)c2)n1 readout="inhibition at 10 µM" value_unit=% measured_number=0
compound_smiles=COc1cc(Nc2nccc(-c3sc(N)nc3-c3cccc(NC(=O)c4c(F)cccc4F)c3)n2)cc(OC)c1OC readout="inhibition at 10 µM" value_unit=% measured_number=0
compound_smiles=CN1CCN(c2ccc(Nc3nccc(-c4cnn5ncccc45)n3)cc2C#N)CC1 readout="inhibition at 10 µM" value_unit=% measured_number=97.7

// data source = paper PMC9927415
